The listing below reports pIC50 for compounds tested on EGFR WT (Homo sapiens (Human), UniProt P00533).
Sequence (P00533 25-1210): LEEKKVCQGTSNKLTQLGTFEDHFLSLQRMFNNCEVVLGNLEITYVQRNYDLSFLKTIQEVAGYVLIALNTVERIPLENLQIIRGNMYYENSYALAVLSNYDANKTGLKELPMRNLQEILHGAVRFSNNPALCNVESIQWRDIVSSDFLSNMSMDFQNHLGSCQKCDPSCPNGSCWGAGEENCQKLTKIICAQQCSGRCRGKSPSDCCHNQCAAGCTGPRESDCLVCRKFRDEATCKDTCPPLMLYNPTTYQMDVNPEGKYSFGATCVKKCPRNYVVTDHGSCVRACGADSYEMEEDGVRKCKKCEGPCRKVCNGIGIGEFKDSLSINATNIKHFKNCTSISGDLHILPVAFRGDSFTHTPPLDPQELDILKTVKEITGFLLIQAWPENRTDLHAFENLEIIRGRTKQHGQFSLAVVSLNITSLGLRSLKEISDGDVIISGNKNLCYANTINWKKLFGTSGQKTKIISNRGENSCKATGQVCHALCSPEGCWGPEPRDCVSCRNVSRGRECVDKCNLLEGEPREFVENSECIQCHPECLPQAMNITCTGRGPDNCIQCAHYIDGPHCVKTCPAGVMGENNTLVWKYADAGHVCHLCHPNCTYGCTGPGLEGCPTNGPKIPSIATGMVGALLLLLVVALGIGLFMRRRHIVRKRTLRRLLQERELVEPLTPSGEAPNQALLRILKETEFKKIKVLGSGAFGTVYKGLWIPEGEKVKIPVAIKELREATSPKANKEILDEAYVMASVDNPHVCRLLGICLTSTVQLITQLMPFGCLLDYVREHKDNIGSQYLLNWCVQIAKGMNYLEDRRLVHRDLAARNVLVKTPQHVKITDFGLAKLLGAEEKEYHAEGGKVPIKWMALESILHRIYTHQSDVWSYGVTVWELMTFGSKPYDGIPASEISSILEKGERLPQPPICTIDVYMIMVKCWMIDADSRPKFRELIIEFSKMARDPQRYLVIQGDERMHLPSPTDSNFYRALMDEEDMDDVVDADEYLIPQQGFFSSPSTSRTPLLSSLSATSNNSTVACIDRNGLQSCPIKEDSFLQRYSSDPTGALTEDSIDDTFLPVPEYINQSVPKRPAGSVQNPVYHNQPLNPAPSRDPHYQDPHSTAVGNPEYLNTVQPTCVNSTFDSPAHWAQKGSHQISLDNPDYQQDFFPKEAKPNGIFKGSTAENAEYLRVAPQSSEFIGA
Remember, pIC50 is on a log scale: it is -log10 of the molar concentration.

Solved cases below.
Cc1nn(C)c2c1/C=C/c1n[nH]c3ccc(cc13)-c1cnn(C)c1O[C@@H](C)CCO2; 6.23
Cc1c2c(nn1C)/C=C/c1n[nH]c3ccc(cc13)-c1cnn(C)c1O[C@@H](C)CN(C)C2; 6.78

Entry Cc1c2c(nn1CCN1CCCC1)CN(C)C[C@@H](C)Oc1c(cnn1C)-c1ccc3[nH]nc(c3c1)/C=C/2 : reported pIC50 = ?
6.53

* * *

- assayed_target: EGFR L858R mutant (Homo sapiens (Human), UniProt P00533, L858R)
- Sequence (P00533 25-1210 L858R): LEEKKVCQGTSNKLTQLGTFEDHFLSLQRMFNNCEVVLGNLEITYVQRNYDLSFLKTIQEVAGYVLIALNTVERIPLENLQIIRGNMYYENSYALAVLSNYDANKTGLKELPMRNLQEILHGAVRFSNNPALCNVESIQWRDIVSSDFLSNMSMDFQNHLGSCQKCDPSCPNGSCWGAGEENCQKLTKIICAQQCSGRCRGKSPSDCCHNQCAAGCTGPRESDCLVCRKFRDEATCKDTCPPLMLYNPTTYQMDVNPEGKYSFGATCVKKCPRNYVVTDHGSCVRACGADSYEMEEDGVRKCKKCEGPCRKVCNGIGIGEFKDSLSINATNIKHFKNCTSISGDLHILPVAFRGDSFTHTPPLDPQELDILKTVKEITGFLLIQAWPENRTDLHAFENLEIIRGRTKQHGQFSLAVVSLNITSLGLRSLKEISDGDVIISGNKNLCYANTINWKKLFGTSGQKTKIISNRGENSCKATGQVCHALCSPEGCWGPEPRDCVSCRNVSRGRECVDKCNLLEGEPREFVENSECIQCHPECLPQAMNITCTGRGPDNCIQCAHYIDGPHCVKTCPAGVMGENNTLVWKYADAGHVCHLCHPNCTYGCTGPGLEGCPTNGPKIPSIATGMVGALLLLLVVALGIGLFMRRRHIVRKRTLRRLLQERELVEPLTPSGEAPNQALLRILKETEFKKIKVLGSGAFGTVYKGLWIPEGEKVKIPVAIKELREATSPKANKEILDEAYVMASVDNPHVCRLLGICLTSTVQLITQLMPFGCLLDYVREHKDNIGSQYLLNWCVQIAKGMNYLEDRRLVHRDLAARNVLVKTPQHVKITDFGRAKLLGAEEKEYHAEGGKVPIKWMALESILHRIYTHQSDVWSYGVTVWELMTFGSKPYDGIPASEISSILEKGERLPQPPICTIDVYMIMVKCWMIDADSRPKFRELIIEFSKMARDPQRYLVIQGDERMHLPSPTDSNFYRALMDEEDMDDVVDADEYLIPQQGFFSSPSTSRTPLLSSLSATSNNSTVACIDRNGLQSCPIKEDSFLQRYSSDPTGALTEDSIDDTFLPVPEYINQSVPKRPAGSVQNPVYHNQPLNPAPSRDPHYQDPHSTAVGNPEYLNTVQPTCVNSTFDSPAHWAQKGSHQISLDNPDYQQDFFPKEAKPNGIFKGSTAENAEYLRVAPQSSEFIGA
- assay_name: HotSpot radiometric kinase assay, EGFR L858R mutant
- stated_conditions: 10 μM ATP
value_type: pIC50
Remember, pIC50 is on a log scale: it is -log10 of the molar concentration.

CCOc1nn([C@@H](C)CO)c2c1/C=C/c1n[nH]c3cc(F)c(cc13)-c1cnn(C)c1O[C@@H](C)CN(CC)C2; 8.77
CCOc1nn(CCO)c2c1/C=C/c1n[nH]c3ccc(cc13)-c1cnn(C)c1O[C@@H](C)CN(C)C2; 9.21
CC(=O)Cn1nc(C)c2c1OCCCOc1c(cnn1C)-c1ccc3[nH]nc(c3c1)/C=C/2; 7.17

Now examine the next entry.
Entry Cc1nn([C@H]2CNC[C@@H]2O)c2c1/C=C/c1n[nH]c3ccc(cc13)-c1cnn(C)c1OCCCO2 (racemic) : reported pIC50 = ?
7.44

* * *

- assayed_target: EGFR L858R/T790M mutant (Homo sapiens (Human), UniProt P00533, L858R/T790M)
- Sequence (P00533 25-1210 T790M/L858R): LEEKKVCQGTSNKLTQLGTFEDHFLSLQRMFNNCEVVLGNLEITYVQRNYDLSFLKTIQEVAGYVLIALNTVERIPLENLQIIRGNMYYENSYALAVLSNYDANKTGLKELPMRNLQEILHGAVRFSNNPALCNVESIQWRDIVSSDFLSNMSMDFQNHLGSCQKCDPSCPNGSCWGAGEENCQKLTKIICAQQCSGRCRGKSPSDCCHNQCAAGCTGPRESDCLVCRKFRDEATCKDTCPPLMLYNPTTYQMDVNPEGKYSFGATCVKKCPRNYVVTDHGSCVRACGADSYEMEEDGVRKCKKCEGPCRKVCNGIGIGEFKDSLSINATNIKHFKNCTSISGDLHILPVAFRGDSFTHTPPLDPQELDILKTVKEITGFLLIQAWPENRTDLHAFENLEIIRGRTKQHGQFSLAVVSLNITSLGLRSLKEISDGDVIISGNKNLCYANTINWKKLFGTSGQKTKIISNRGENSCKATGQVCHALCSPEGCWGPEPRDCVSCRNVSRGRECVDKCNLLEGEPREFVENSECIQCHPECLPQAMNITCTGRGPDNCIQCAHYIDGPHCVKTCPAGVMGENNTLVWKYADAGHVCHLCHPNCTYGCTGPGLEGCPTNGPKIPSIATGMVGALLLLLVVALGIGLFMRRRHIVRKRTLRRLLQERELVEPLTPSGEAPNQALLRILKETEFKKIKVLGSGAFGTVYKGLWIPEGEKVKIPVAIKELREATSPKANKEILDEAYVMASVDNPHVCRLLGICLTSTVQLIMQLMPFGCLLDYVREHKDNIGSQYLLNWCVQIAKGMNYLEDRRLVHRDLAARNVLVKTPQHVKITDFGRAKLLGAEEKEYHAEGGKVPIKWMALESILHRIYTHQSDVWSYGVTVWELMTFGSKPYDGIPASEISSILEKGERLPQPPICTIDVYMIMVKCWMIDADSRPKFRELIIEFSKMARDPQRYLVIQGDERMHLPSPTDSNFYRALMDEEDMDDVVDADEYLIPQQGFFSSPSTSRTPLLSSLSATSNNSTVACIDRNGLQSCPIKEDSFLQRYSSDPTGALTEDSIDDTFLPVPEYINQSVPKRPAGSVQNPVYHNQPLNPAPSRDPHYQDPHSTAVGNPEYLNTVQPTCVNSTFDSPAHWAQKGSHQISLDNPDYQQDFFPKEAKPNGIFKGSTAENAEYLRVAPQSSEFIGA
- assay_name: HotSpot radiometric kinase assay, EGFR L858R/T790M mutant
- stated_conditions: 10 μM ATP
value_type: IC50 (nM)
Write the value in nM as a bare number.

Solved cases below.
C[C@H]1CN(C)Cc2c(c(OCC#N)nn2C)/C=C/c2n[nH]c3ccc(cc23)-c2cnn(C)c2O1; 0.85
CCOc1nn(C)c2c1/C=C/c1n[nH]c3cc(F)c(cc13)-c1cnn(C)c1O[C@@H](C)CN(CC)C2; 0.52
Cc1nn(C)c2c1/C=C/c1n[nH]c3ccc(cc13)-c1cnn(C)c1O[C@H]1CCCN(C2)C1; 6.94

Now examine the next entry.
Entry CCOc1nn(CCO)c2c1/C=C/c1n[nH]c3ccc(cc13)-c1cnn(C)c1O[C@@H](CC)CN(C)C2 : reported IC50 = ?
0.9

* * *

- assayed_target: EGFR L858R mutant (Homo sapiens (Human), UniProt P00533, L858R)
- assay_name: HotSpot radiometric kinase assay, EGFR L858R mutant
- stated_conditions: 10 μM ATP
value_type: pIC50
Remember, pIC50 is on a log scale: it is -log10 of the molar concentration.

Solved cases below.
CC(C)Oc1nn(CCO)c2c1/C=C/c1n[nH]c3cc(F)c(cc13)-c1cnn(C)c1O[C@H](C)[C@H]1CCCN1C2 (single isomer, unassigned); 8.93
Cc1c2c(nn1[C@H]1CCNC[C@@H]1O)OCCCOc1c(cnn1C)-c1ccc3[nH]nc(c3c1)/C=C/2 (racemic); 7.78
COCc1nn(CCO)c2c1/C=C/c1n[nH]c3ccc(cc13)-c1cnn(C)c1O[C@@H](C)CN(C)C2; 7.67

Entry CCOc1nn(CCO)c2c1/C=C/c1n[nH]c3ccc(cc13)-c1c(C)nn(C)c1O[C@@H](C)CN(C(C)C)C2 : reported pIC50 = ?
9.05
